# ASSAY TARGET: wtKIT (Homo sapiens)
# Construct: 1888289AM in the reaction mixtures
# Sequence (P10721 26-976): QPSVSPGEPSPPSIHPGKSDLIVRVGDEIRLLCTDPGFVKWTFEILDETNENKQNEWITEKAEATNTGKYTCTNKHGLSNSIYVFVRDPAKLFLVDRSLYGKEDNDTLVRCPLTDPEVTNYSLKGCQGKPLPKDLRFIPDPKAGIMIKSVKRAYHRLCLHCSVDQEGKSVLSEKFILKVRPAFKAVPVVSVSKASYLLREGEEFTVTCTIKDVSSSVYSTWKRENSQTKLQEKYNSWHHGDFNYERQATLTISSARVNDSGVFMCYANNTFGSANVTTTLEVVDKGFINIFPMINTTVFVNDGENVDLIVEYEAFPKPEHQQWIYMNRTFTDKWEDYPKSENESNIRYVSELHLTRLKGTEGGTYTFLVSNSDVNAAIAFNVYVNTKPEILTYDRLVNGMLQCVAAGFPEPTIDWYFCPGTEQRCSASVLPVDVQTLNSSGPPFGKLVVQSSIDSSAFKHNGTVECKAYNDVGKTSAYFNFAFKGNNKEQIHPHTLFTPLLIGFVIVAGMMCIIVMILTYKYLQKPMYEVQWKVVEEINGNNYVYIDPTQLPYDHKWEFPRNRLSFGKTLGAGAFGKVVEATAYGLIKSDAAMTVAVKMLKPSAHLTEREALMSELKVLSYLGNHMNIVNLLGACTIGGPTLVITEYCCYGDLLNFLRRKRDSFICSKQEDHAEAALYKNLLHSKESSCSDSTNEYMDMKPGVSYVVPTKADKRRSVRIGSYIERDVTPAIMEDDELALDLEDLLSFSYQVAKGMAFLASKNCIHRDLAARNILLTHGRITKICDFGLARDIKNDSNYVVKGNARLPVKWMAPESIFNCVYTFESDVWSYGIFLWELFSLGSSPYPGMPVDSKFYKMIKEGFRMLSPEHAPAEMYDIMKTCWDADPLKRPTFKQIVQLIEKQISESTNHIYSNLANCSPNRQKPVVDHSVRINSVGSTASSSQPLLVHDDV
# EXPERIMENT: HTRF biochemical assay, wtKIT (phosphorylation of a peptide substrate)
# EXPERIMENTAL CONTEXT: Table 4
pIC50: −log10 of the molar value.
EXPERIMENTAL READOUT: pIC50

{"columns": ["COMPOUND", "OBSERVED VALUE"],
 "data": [
  ["CCc1nc(-c2ccc(C)c(NC(=O)c3cnc4cc(OC)ccn34)c2)no1", "≥ 7.30"],
  ["Cc1ccn2c(C(=O)Nc3cc(-c4noc(C5CCC(F)(F)CC5)n4)ccc3C)cnc2c1", "≥ 7.30"],
  ["Cc1ccc(-c2noc(C3CCN3)n2)cc1NC(=O)c1cnc2ccccn12 (racemic)", "6.30 to 7.30"],
  ["Cc1ccc(-c2noc(C[C@H](O)C(F)F)n2)cc1NC(=O)c1cnc2cc(OCC(C)(C)O)ccn12", "≥ 7.30"],
  ["Cc1ccc(-c2noc(C(O)C3CCC3)n2)cc1NC(=O)c1cnc2ccccn12 (racemic)", "≥ 7.30"],
  ["Cc1ccc(-c2noc(C[C@H](O)C(F)F)n2)cc1NC(=O)c1cnc2cc(COCc3c[nH]cn3)ccn12", "≥ 7.30"],
  ["COCC(O)c1nc(-c2ccc(C)c(NC(=O)c3cnc4cc(C)ccn34)c2)no1 (centres unmarked)", "6.30 to 7.30"],
  ["Cc1ccc(-c2noc([C@H]3C[C@@H]3F)n2)cc1NC(=O)c1cnc2ccc(C(C)(C)O)cn12", "≥ 7.30"],
  ["Cc1ccn2c(C(=O)Nc3cc(-c4noc(CC5CCCCO5)n4)ccc3C)cnc2c1 (centres unmarked)", "≥ 7.30"],
  ["Cc1ccc(-c2noc(CC3COC3)n2)cc1NC(=O)c1cnc2cc(Cl)ccn12", "≥ 7.30"],
  ["Cc1ccc(-c2noc([C@H]3C[C@@H]3F)n2)cc1NC(=O)c1cnc2cc(C(=O)O)ccn12", "6.30 to 7.30"],
  ["Cc1ccc(-c2noc(CC(O)C(F)F)n2)cc1NC(=O)c1cnc2ccccn12 (centres unmarked) [Compound I-476]", "≥ 7.30"],
  ["Cc1ccc(-c2noc([C@H]3C[C@@H]3F)n2)cc1NC(=O)c1cnc2cc(CC(C)(C)O)ccn12", "6.30 to 7.30"],
  ["Cc1ccc(-c2noc([C@@H]3CCCO3)n2)cc1NC(=O)c1cnc2ccccn12", "≥ 7.30"],
  ["Cc1nc(-c2ccc(C)c(NC(=O)c3cnc4cc(COCCO)ccn34)c2)no1", "≥ 7.30"],
  ["Cc1ccc(-c2noc(C[C@H](O)C(F)F)n2)cc1NC(=O)c1cnc2cc(COCc3ccn[nH]3)ccn12", "≥ 7.30"],
  ["COC(=O)N1CC(c2nc(-c3ccc(C)c(NC(=O)c4cnc5ccc(OC[C@@H](C)O)cn45)c3)no2)C1", "6.30 to 7.30"],
  ["Cc1ccc(-c2noc([C@H](O)CO)n2)cc1NC(=O)c1cnc2cc(Cl)ccn12", "5.30 to 6.30"],
  ["Cc1ccc(-c2noc([C@@H]3CC4(CC4)CN3)n2)cc1NC(=O)c1cnc2cc(Cl)ccn12", "≥ 7.30"],
  ["CNC(C)COCc1ccn2c(C(=O)Nc3cc(-c4noc(CC(O)C(F)F)n4)ccc3C)cnc2c1 (centres unmarked) [Compound I-599]", "6.30 to 7.30"]
]}

----------
# ASSAY TARGET: wtKIT (Homo sapiens)
# Construct: 1888289AM in the reaction mixtures
# EXPERIMENT: HTRF biochemical assay, wtKIT (phosphorylation of a peptide substrate)
# EXPERIMENTAL CONTEXT: Table 4
Measured IC50 by item

{"columns": ["MOLECULE", "IC50"],
 "data": [
  ["COc1ccn2c(C(=O)Nc3cc(-c4noc(-c5cccnc5)n4)ccc3C)cnc2c1", "≤ 50 nM"],
  ["Cc1nc(-c2ccc(C)c(NC(=O)c3cnn4cc(-c5ccn(C)n5)ccc34)c2)no1", "≤ 50 nM"],
  ["Cc1ccc(-c2noc(C[C@H](O)C(F)F)n2)cc1NC(=O)c1cnc2cc(OCCO)ccn12", "≤ 50 nM"],
  ["Cc1ccc(-c2noc(CC(O)C(F)F)n2)cc1NC(=O)c1cnc2ccccn12 (stereo not drawn) [Compound I-114]", "≤ 50 nM"],
  ["Cc1ccc(-c2noc(C3CC(F)(F)C3)n2)cc1NC(=O)c1cnc2cc(CO)ccn12", "≤ 50 nM"],
  ["COC(C)(C)COCc1ccn2c(C(=O)Nc3cc(-c4noc([C@H]5C[C@@H]5F)n4)ccc3C)cnc2c1", "50 to 500 nM"],
  ["Cc1ccc(-c2noc(CCO)n2)cc1NC(=O)c1cnc2ccccn12", "50 to 500 nM"],
  ["Cc1ccc(-c2noc(CC(O)C(F)F)n2)cc1NC(=O)c1cnn2ccccc12 (single isomer, unassigned)", "≤ 50 nM"],
  ["Cc1ccc(-c2noc([C@H]3C[C@@H](N)C3)n2)cc1NC(=O)c1cnc2cc(Cl)ccn12", "500 to 5000 nM"],
  ["Cc1ccc(-c2noc(N3CC(F)(F)C3)n2)cc1NC(=O)c1cnn2cc(Cl)ccc12", "≤ 50 nM"],
  ["COc1cc2ncc(C(=O)Nc3cc(-c4noc(N5CC(F)(F)C5)n4)ccc3C)n2cc1F", "≤ 50 nM"],
  ["Cc1ccc(-c2noc([C@H]3C[C@@H]3F)n2)cc1NC(=O)c1cnc2cc3c(cn12)C(C)OC3 (single isomer, unassigned) [Compound I-482]", "≤ 50 nM"],
  ["Cc1ccc(-c2noc([C@H]3C[C@@H]3F)n2)cc1NC(=O)c1cnc2cc(COCC(O)C(F)F)ccn12 (stereo partly drawn)", "≤ 50 nM"],
  ["CCOc1ccn2c(C(=O)Nc3cc(-c4noc([C@H]5C[C@@H]5F)n4)ccc3C)cnc2c1", "≤ 50 nM"],
  ["Cc1ccc(-c2noc([C@H]3C[C@@H]3F)n2)cc1NC(=O)c1cnc2cc(C(C)OCCO)ccn12 (relative stereo)", "≤ 50 nM"],
  ["Cc1ccc(-c2noc([C@H]3C[C@@H]3F)n2)cc1NC(=O)c1cnc2cc(F)ccn12", "≤ 50 nM"],
  ["COC(=O)N1CC(c2nc(-c3ccc(C#N)c(NC(=O)c4cnc5ccccn45)c3)no2)C1", "50 to 500 nM"],
  ["COC(=O)N1CC(c2nc(-c3ccc(C)c(NC(=O)c4cnc5ccc(OCCO)cn45)c3)no2)C1", "50 to 500 nM"]
]}

----------
# ASSAY TARGET: BCRP (BCRP-MDCKII monolayer) (Homo sapiens)
# Construct: host or cells: MDCKII (canine kidney) cells
# Sequence (Q9UNQ0 whole entry): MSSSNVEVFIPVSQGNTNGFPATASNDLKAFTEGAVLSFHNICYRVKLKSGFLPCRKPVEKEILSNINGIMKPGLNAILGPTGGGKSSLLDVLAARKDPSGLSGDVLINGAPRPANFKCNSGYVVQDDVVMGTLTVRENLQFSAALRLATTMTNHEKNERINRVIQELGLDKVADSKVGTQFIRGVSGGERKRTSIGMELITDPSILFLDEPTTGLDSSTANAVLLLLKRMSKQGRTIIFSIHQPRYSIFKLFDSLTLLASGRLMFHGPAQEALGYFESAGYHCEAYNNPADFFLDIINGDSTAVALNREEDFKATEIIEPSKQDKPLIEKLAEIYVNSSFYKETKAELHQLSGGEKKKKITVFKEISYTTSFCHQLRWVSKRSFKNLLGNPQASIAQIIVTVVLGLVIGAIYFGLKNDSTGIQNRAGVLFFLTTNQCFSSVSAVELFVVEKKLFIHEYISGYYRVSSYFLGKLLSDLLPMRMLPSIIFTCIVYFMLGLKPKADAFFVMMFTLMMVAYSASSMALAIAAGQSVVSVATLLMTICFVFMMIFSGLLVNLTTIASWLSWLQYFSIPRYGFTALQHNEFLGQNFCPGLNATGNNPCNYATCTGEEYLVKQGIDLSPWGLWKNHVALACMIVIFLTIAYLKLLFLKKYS
# EXPERIMENT: MDCKII-BCRP bidirectional transport assay
# Type: in vitro ADME
# EXPERIMENTAL CONTEXT: apical to basolateral
In this section we review reported MDCK-BCRP: Papp A-B values for a set of compounds.
EXPERIMENTAL READOUT: MDCK-BCRP: Papp A-B

{"columns": ["COMPOUND", "ASSAY TARGET", "OBSERVED VALUE"],
 "data": [
  ["Cc1nc(-c2ccc(C)c(NC(=O)c3cnc4ccc(N)cn34)c2)no1", "BCRP (BCRP-MDCKII monolayer) (Homo sapiens)", "0.79 10^−6 cm/s"],
  ["Cc1ccc(-c2noc([C@H]3CCC(=O)N3)n2)cc1NC(=O)c1cnc2ccccn12 (racemic)", "BCRP (BCRP-MDCKII monolayer) (Homo sapiens)", "0.28 10^−6 cm/s"],
  ["Cc1nc(-c2ccc(C)c(NC(=O)c3cnc4cc(C(F)F)ccn34)c2)no1", "BCRP (BCRP-MDCKII monolayer) (Homo sapiens)", "7.85 10^−6 cm/s"],
  ["Cc1ccc(-c2noc([C@H]3C[C@@H]3F)n2)cc1NC(=O)c1cnc2cc(OC(C)C)ccn12", "BCRP (BCRP-MDCKII monolayer) (Homo sapiens)", "29 10^−6 cm/s"],
  ["Cc1ccc(-c2noc(C3CC(O)(c4ccccc4)C3)n2)cc1NC(=O)c1cnc2ccccn12 (centres unmarked)", "BCRP (BCRP-MDCKII monolayer) (Homo sapiens)", "16.6 10^−6 cm/s"],
  ["COc1ccn2c(C(=O)Nc3cc(-c4noc(CC5CC(F)(F)C5)n4)ccc3C)cnc2c1", "BCRP (BCRP-MDCKII monolayer) (Homo sapiens)", "1.11 10^−6 cm/s"],
  ["COC(=O)N1CC(c2nc(-c3ccc(C)c(NC(=O)c4cnc5cc(OC(C)(C)CO)ccn45)c3)no2)C1", "BCRP (BCRP-MDCKII monolayer) (Homo sapiens)", "1.08 10^−6 cm/s"],
  ["COC(=O)C1CC(c2nc(-c3ccc(C)c(NC(=O)c4cnc5ccccn45)c3)no2)C1 (centres unmarked) [Compound I-342]", "BCRP (BCRP-MDCKII monolayer) (Homo sapiens)", "30 10^−6 cm/s"],
  ["COC(=O)N1CC(c2nc(-c3ccc(C)c(NC(=O)c4cnc5cc(OC[C@H](C)O)ccn45)c3)no2)C1", "BCRP (BCRP-MDCKII monolayer) (Homo sapiens)", "0.54 10^−6 cm/s"],
  ["Cc1ccc(-c2noc([C@H]3CCN(C(=O)OC(C)(C)C)C3)n2)cc1NC(=O)c1cnc2ccccn12", "BCRP (BCRP-MDCKII monolayer) (Homo sapiens)", "20.3 10^−6 cm/s"],
  ["Cc1ccc(-c2noc(C3(C)CC(F)(F)CN3)n2)cc1NC(=O)c1cnc2ccccn12 (racemic)", "BCRP (BCRP-MDCKII monolayer) (Homo sapiens)", "6.06 10^−6 cm/s"],
  ["Cc1ccc(-c2noc(C3CC(F)C3)n2)cc1NC(=O)c1cnc2ccccn12 (centres unmarked)", "BCRP (BCRP-MDCKII monolayer) (Homo sapiens)", "10.1 10^−6 cm/s"],
  ["Cc1ccc(-c2noc(C3CCS(=O)(=O)N3)n2)cc1NC(=O)c1cnc2ccccn12 (racemic)", "BCRP (BCRP-MDCKII monolayer) (Homo sapiens)", "1.28 10^−6 cm/s"],
  ["Cc1ccc(-c2noc(C3CCN(C(=O)OC(C)(C)C)C3)n2)cc1NC(=O)c1cnc2ccccn12 (racemic)", "BCRP (BCRP-MDCKII monolayer) (Homo sapiens)", "6.48 10^−6 cm/s"],
  ["COC(=O)N1CC(c2nc(-c3ccc(C)c(NC(=O)c4cnn5ccc(C#N)cc45)c3)no2)C1", "BCRP (BCRP-MDCKII monolayer) (Homo sapiens)", "1 10^−6 cm/s"],
  ["Cc1ccc(-c2noc(CC(O)C(F)F)n2)cc1NC(=O)c1cnc2ccccn12 (centres unmarked) [Compound I-122]", "BCRP (BCRP-MDCKII monolayer) (Homo sapiens)", "1.63 10^−6 cm/s"],
  ["Cc1ccc(-c2noc([C@H]3C[C@@H]3F)n2)cc1NC(=O)c1cnc2cc(OC(F)(F)F)ccn12", "BCRP (BCRP-MDCKII monolayer) (Homo sapiens)", "30.4 10^−6 cm/s"],
  ["Cc1ccc(-c2noc(C3CCN3)n2)cc1NC(=O)c1cnc2ccccn12 (racemic)", "BCRP (BCRP-MDCKII monolayer) (Homo sapiens)", "1.42 10^−6 cm/s"],
  ["O=C(Nc1cc(-c2noc([C@H]3C[C@@H]3F)n2)ccc1Br)c1cnc2ccccn12", "BCRP (BCRP-MDCKII monolayer) (Homo sapiens)", "80.4 10^−6 cm/s"],
  ["COC(=O)N1CC(c2nc(-c3ccc(C)c(NC(=O)c4cnc5cc(O[C@@H](C)CO)ccn45)c3)no2)C1 (single isomer, unassigned)", "BCRP (BCRP-MDCKII monolayer) (Homo sapiens)", "0.86 10^−6 cm/s"]
]}

Hello, the source for this data is patent US20240254119A1, in case you need it.
